Each recorded value in this set is attributed to patent US20190241669A1.

molecular target: Human BCMA (human) (UniProt Q02223); assay: SPR, IgG on chip, huBCMA analyte
propertyLabel: kon (M⁻¹ s⁻¹)
Numbers only, in M⁻¹ s⁻¹.

Previously resolved entries follow.
>>> numericvalue("COMBO_Rd4_6nM_C22 (antibody, V domains shown, IgG) VH: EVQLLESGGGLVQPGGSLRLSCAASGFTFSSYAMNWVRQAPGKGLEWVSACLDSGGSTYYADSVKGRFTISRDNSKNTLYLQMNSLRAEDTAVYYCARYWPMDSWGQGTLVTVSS VL: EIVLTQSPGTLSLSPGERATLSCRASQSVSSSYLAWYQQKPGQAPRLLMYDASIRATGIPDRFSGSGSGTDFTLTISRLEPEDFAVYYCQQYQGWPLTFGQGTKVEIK")
"3.03e+06"
>>> numericvalue("A02_Rd4_6nM_C08 (antibody, V domains shown, IgG) VH: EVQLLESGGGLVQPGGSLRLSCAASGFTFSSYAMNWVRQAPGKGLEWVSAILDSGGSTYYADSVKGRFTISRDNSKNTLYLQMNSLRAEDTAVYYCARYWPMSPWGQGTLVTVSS VL: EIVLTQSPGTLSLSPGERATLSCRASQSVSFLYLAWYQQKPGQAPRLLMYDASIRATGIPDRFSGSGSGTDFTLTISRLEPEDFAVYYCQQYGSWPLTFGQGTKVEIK")
"3.92e+06"
>>> numericvalue("P5A2_VHVL (antibody, V domains shown, IgG) VH: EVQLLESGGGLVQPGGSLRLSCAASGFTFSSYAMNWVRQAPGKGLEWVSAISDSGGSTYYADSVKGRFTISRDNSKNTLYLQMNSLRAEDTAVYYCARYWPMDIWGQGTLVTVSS VL: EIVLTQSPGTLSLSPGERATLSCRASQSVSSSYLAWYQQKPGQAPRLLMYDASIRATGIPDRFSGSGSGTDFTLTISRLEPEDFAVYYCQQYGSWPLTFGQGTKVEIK")
"6.96e+06"
>>> numericvalue("A02_Rd4_6nM_C07 (antibody, V domains shown, IgG) VH: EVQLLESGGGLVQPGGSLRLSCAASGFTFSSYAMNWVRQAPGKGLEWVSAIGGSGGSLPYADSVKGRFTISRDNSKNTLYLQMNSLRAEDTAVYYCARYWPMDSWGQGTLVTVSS VL: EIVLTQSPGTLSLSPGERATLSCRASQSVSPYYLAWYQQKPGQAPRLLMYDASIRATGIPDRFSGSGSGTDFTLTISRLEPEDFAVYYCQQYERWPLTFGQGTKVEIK")
"1.48e+06"

Here is another binder to look at.
**Q:** Specify kon for COMBO_Rd4_0.6nM_C29 (antibody, V domains shown, IgG) VH: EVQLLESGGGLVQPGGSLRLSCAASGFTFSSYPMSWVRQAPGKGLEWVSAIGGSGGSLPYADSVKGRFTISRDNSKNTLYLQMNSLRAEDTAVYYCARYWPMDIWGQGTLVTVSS VL: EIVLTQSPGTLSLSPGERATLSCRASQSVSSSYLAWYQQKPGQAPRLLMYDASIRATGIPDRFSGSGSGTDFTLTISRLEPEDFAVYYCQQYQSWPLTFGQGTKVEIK and stop.
**A:** 1.47e+07
